B1: Far upstream element-binding protein 3, residues 75 to 150; numbered along this chain, Q96I24 (parent)
chain: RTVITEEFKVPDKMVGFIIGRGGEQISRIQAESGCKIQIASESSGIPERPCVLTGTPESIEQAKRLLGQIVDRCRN

Variants of: B1
Assay: abundance fitness (aPCA) (normalised: wild type 0, dead -1); higher = more abundant; growth selection in yeast, the domain comes from the species named
Settings: Homo sapiens
Recorded abundance fitness determines the group label, using low (below -0.2), intermediate (-0.2 to below -0.05), high (-0.05 or more)

sequenceChange | qualitativeLabel
C51Y | low
A63R | low
E42K | high
R21W | intermediate
I60Y | low
R21V | intermediate
P57V | intermediate
E61F | high
Q30L | low
E6I | intermediate
I4K | high
I46A | high
S41N | high
R21C | intermediate
